- Tested on: OVCAR-4 ovarian
- Experimental Details: NCI tumour cell line growth inhibition, 48 h
Experimental Endpoint: TGI

Return reported TGI; argument: c1ccc2c(c1)C1CCCCCC21N1CCOCC1 (centres undefined)
> 100 µM

NC(N)=NCCCC(NC(=O)c1cccc2c(=O)c3ccccc3[nH]c12)C(=O)O (centres undefined) ?
> 100 µM

O=C1OC(=O)C(=C\c2ccc3c(c2)OCO3)/C1=C/c1ccc2c(c1)OCO2 ?
> 100 µM

COc1c(F)c(F)c(/C(O)=C\c2nc3ccccc3[nH]c2=O)c(F)c1F ?
4.94 µM

====

- System: COLO 205 colon
- Experimental Details: NCI tumour cell line growth inhibition, 48 h
Where a SMILES comes first, the peptide text is derived from it. [ ]: non-standard residue; d: D form. The star is where a group is joined. NMeV = CN[C@H](C(=O)O)C(C)C; X29 = COc1ccc(CN*)c(OC)c1; Octanoyl = CCCCCCCC(=O)*; dNMeA = CN[C@H](C)C(=O)O
Experimental Endpoint: log10(TGI) (log10 of the value in µM)
Parameter value (number): base-10 log of TGI in µM.

Return reported log10(TGI); argument: O=C(CCl)NNC1=Nc2ccc(Cl)cc2SC1
0.54

O=C1c2c(c3c4ccccc4[nH]c3c3ccc4ccccc4c23)C(=O)N1CCN1CCNCC1 ?
0.56

CC(=O)/C=C/c1cn(C(=O)OC(C)(C)C)c2ccc(Br)cc12 ?
1.62

O=c1[nH]cc(-c2c[nH]c3ccccc23)nc1-c1c[nH]c2ccccc12 ?
1.37

O=C1OCC2=C1C(c1ccccc1)c1cc3c(cc1N2)OCO3 (stereo not given) ?
-1.15

O=C1OCC2OC(=O)c3cc(O)c(O)c(O)c3-c3c(O)c(O)c(O)c4c3C(=O)OC(C2OC(=O)c2cc(O)c(O)c(O)c2-c2c1cc(O)c(O)c2O)C1OC(=O)c2c-4c(O)c(O)c(O)c2[C@@H]1C(O)C(O)C(O)C(O)CO (stereo not given in full) ?
1.48

COc1ccccc1-c1cc(=O)c2cc(C)cnc2[nH]1 ?
1.72

CCCCCCCOc1ccc(/C=C\c2cc[n+](CCCCCCCC[n+]3ccc(/C=C\c4ccc(OCCCCCCC)cc4)cc3)cc2)cc1 ?
1.77

OCCNCCN1CCN(CCCN2c3ccccc3Sc3ccc(C(F)(F)F)cc32)CC1 ?
1.51

CCOC(=O)C1=NOC2(C=C(Br)C(=O)C(Br)=C2)C1 ?
0.43

N#CC1(C(N)=O)C(c2ccc(Cl)cc2)CC(=O)CC1c1ccc(Cl)cc1 (stereo not given) ?
1.48

CCCCCCCC(=O)N[C@H](C(=O)N[C@H](C(=O)N(C)[C@H](C(=O)N1CCC[C@H]1C(=O)N(C)[C@H](C)C(=O)NCc1ccc(OC)cc1OC)C(C)C)C(C)C)C(C)C (Octanoyl-VV[NMeV]P[dNMeA]-X29) ?
1.36

C/C(=N\Nc1ccc([N+](=O)[O-])cc1[N+](=O)[O-])c1sc(-n2nc(-c3ccccc3)cc2-c2ccccc2)nc1C ?
1.83

CCOC(=O)c1c(C)nc2c1c(CN(C)C)c(O)c1[nH]c(C)c(C)nc12 ?
1.61

CC(=O)c1ccc2c(c1)CC1(C2)Cc2cc3c(cc2C1=O)CCC3 (stereo not given) ?
1.49

O=C1C=CC2(C=C1)O[C@H](Cc1ccccc1)[C@@H](Cc1ccccc1)O2 ?
0.48

O=C1c2cccnc2C(=O)c2c1c(C(=O)NCCCN1CCCCC1)c1ccccn21 ?
-0.03

O=C(O)CN1CCN(CC(=O)O)CC(=O)[O][Hg][O]C(=O)C1 ?
1.51
